// values below are reported Formation of formazan dyes, absorbance, Means 10 h
- Test system: diaphorase
- procedure_summary: Formation of formazan dyes: NADH, diaphorase and malate (TABLE 8)
- Type: biochemical, Clostridium kluyveri
- protocol_conditions: NADH, diaphorase and malate; 10 h
property_name: Formation of formazan dyes, absorbance, Means 10 h

1. COc1cc(-c2ccc(-[n+]3nc(-c4ccc(C(=O)N(CCS(=O)(=O)[O-])CCS(=O)(=O)[O-])cc4)nn3-c3nc4ccccc4s3)c(OC)c2)ccc1-[n+]1nc(-c2ccc(C(=O)N(CCS(=O)(=O)[O-])CCS(=O)(=O)[O-])cc2)nn1-c1nc2ccccc2s1.[Na+].[Na+]
2.31
2. COc1cc([N+](=O)[O-])c(S(=O)(=O)[O-])cc1-n1nc(C(=O)Nc2ccccc2)n[n+]1-c1cc(S(=O)(=O)O)c([N+](=O)[O-])cc1OC
2.41
3. COc1cc([N+](=O)[O-])ccc1-[n+]1nc(-c2ccc(S(=O)(=O)[O-])cc2S(=O)(=O)[O-])nn1-c1ccc([N+](=O)[O-])cc1.[Na+]
3.51
4. Cc1nc(-[n+]2nc(-c3cccc(OCC(=O)O)c3)nn2-c2ccc(S(=O)(=O)[O-])cc2)sc1C
3.08
5. O=[N+]([O-])c1ccc(-[n+]2nc(-c3ccc(S(=O)(=O)[O-])cc3S(=O)(=O)[O-])nn2-c2ccc(I)cc2)cc1.[Na+]
2.44

====

- Test system: Malate dehydrogenase and diaphorase
- procedure_summary: Formation of formazan dyes: Malate dehydrogenase, diaphorase and malate (TABLE 10)
- Format: biochemical, pig heart
- protocol_conditions: Malate dehydrogenase, diaphorase and malate; 4 h
The threshold is 3. Values of Formation of formazan dyes, absorbance, Means 4 h beneath it are tagged yes (1); values meeting or exceeding it are tagged no (0).

1. Cc1nc(-[n+]2nc(-c3cccc(OCC(=O)O)c3)nn2-c2ccc(S(=O)(=O)[O-])cc2)sc1C [MTS]
no (0)
2. COc1cc(-c2ccc(-[n+]3nc(-c4ccc(C(=O)N(CCS(=O)(=O)[O-])CCS(=O)(=O)[O-])cc4)nn3-c3nc4ccccc4s3)c(OC)c2)ccc1-[n+]1nc(-c2ccc(C(=O)N(CCS(=O)(=O)[O-])CCS(=O)(=O)[O-])cc2)nn1-c1nc2ccccc2s1.[Na+].[Na+] [WST-5]
yes (1)
3. COc1cc([N+](=O)[O-])ccc1-[n+]1nc(-c2ccc(S(=O)(=O)[O-])cc2S(=O)(=O)[O-])nn1-c1ccc([N+](=O)[O-])cc1.[Na+] [WST-8]
yes (1)
4. O=[N+]([O-])c1ccc(-[n+]2nc(-c3ccc(S(=O)(=O)[O-])cc3S(=O)(=O)[O-])nn2-c2ccc(I)cc2)cc1.[Na+] [WST-1]
yes (1)

====

// values below are reported Formation of formazan dyes, absorbance, Means 8 h
- Tested on: oral lavage
- procedure_summary: Formation of formazan dyes: oral lavage, malate and diaphorase (TABLE 12)
- Format: biochemical, human
- protocol_conditions: oral lavage, malate and diaphorase; 8 h
property_name: Formation of formazan dyes, absorbance, Means 8 h

1. Cc1nc(-[n+]2nc(-c3cccc(OCC(=O)O)c3)nn2-c2ccc(S(=O)(=O)[O-])cc2)sc1C [MTS]
1.84
2. COc1cc(-c2ccc(-[n+]3nc(-c4ccc(C(=O)N(CCS(=O)(=O)[O-])CCS(=O)(=O)[O-])cc4)nn3-c3nc4ccccc4s3)c(OC)c2)ccc1-[n+]1nc(-c2ccc(C(=O)N(CCS(=O)(=O)[O-])CCS(=O)(=O)[O-])cc2)nn1-c1nc2ccccc2s1.[Na+].[Na+] [WST-5]
0.90
3. COc1cc([N+](=O)[O-])ccc1-[n+]1nc(-c2ccc(S(=O)(=O)[O-])cc2S(=O)(=O)[O-])nn1-c1ccc([N+](=O)[O-])cc1.[Na+] [WST-8]
1.05
4. O=[N+]([O-])c1ccc(-[n+]2nc(-c3ccc(S(=O)(=O)[O-])cc3S(=O)(=O)[O-])nn2-c2ccc(I)cc2)cc1.[Na+] [WST-1]
1.52
5. COc1cc([N+](=O)[O-])c(S(=O)(=O)[O-])cc1-n1nc(C(=O)Nc2ccccc2)n[n+]1-c1cc(S(=O)(=O)O)c([N+](=O)[O-])cc1OC [XTT]
1.73
